// data source = patent US9828350B2

Test system: Abeta 1-42
Assay: Cellular αLisa assay in SKNBE2 cells, Abeta 1-42
Format: cell-based, human
Conditions: Homo sapiens, SKNBE2, 18 h, incubated for 18 hours, read-out: Cellular αLisa assay in SKNBE2 cells Abeta 42 pIC50 (converted)
metric: IC50 (nM)

>>> recorded_value("C[C@]1(c2cc(-c3cncnc3)c(F)cc2F)N=C(N)CO[C@H]1C(F)(F)F")
347
>>> recorded_value("COc1cncc(-c2cccc(C3(C)COCC(N)=N3)c2)c1 (racemic) [Compound 4]")
257
>>> recorded_value("C[C@@]1(c2cc(-c3cncnc3)c(F)cc2F)N=C(N)CO[C@H]1F (single isomer, unassigned)")
251
>>> recorded_value("C[C@]1(c2cc(NC(=O)c3ncc(Cl)cc3F)ccc2F)N=C(N)CO[C@H]1C(F)(F)F")
6.61
>>> recorded_value("COc1ccc(C(=O)Nc2ccc(F)c([C@@]3(C)N=C(N)CO[C@@H]3F)c2)nc1")
11
>>> recorded_value("C[C@]1(c2cc(NC(=O)c3ncc(Cl)cc3Cl)ccc2F)N=C(N)CO[C@H]1C(F)(F)F")
7.59
